FYI, the data here is from the supplement of paper PMC4466140.

target: AgFus1; assay: SPOT peptide array binding signal intensity (averaged, normalized) (arbitrary units (background-subtracted, floor 0; scale differs between SH3 domains)); higher = stronger binding of the SH3 domain to the peptide
SPOT peptide array binding signal intensity reference
// print number alone

{"BINDER": "VFQFQMPTTPISTKM", "VAL": 346}
{"BINDER": "IRMPSNPALPKKLLN", "VAL": 806}
{"BINDER": "DDEDVPPQLPTRTKS", "VAL": 6.5}
{"BINDER": "VNIPSPSSSPPPIPK", "VAL": 0.5}
{"BINDER": "KIRRSSLMIPNPQQF", "VAL": 88}

Okay, next one:
Entry RLPAPPPPPRRGPAP needs its SPOT peptide array binding signal intensity filled in; supply it.
6
